// data source = patent US20250136687A1

tested-target: T1, human CD3 on the cell surface (Jurkat cells, expanded human T cells, Jurkat-Lucia NFAT cells, human PBMC) (human, UniProt P07766 23-207; P04234 22-171; P09693 23-182)
T1 construct: whole, on cells; Endogenous CD3 within the TCR-CD3 complex on cells (also zeta chains and TCR); the cell type is named under assay
T1 sequence (P07766 23-207, chain 1 of 3): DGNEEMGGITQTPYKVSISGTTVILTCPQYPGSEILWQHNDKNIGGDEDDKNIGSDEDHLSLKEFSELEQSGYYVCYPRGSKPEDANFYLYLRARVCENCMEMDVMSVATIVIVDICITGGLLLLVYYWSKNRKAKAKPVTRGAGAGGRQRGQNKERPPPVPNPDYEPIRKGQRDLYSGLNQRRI
T1 sequence (P04234 22-171, chain 2 of 3): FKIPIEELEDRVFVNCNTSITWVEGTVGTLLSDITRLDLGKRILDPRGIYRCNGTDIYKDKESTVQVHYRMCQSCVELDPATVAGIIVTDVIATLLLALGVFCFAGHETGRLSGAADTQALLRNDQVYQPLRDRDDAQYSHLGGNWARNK
T1 sequence (P09693 23-182, chain 3 of 3): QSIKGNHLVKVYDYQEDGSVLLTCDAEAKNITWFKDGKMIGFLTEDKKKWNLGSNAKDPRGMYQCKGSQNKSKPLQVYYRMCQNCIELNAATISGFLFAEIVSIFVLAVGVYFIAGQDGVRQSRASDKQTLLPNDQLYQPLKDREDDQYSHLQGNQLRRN
protocol-notes: FACS, Jurkat cells
reported-endpoint: MFI_Max (MFI)
Note: unit MFI is implicit; provide only the numeric part.

| binder | reported-endpoint | units-symbol | assay-result |
| --- | --- | --- | --- |
| 5-7.13 human-murine chimeric antibody (antibody, human IgG1, kappa, V domains shown, Human IgG1 chimera) VH: QVQLQQPGTELVKPGASVKLSCKASGYTFTSYWVHWVKQRPGQGLEWIGNINPSDGVTNYNEKFKSRATLTVDKSSSTAYMQLSSLTSEDSAVYYCTRDAYGQYYFDDWGQGTTLTVSS VL: DIVMSQSPSSLVVSAGEKVTMSCKSSQSLLNSRTRKNYLAWYQQKPGQSPKLLIYWASVRDSGVPDRFTGSGSGTDFTLTISNVQAEDLAVYYCIQSYYLRTFGGGTILEIKR | MFI_Max | MFI | 32200 |
| 5-40.21 human-murine chimeric antibody (antibody, human IgG1, kappa, V domains shown, Human IgG1 chimera) VH: QVQLQQPGSELVRPGASVKLSCKASGYTFTSYWMHWVKQRPGQGLEWIGNTYPGSGSTNYDEKFKSKATLTVDSSSSTAYMQLSSLTSEDSAVYYCTRDRYGVYYFDYWGQGTTLTVSS VL: DIVMSQSPSSLAVSAGEKVTMSCKSSQSLLNSRTRKNYLAWYQQKPGQSPKLLIYWASTRESGVPDRFSGSGSGTDFTLTISSVQAEDLAVYYCTQSYNLRTFGGGTKLEIKR | MFI_Max | MFI | 26700 |

Can you share its MFI_Max? I mean this binder: 6-35.22 human-murine chimeric antibody (antibody, human IgG1, kappa, V domains shown, Human IgG1 chimera) VH: EVKLVESGGGLVQPGASLSLSCAASGFTFTDYYMSWVRQPPGKALEWLAMSRNKAKGHTIEYSSSVKGRFTISRDNSQSILYLQMNALRAEDSATYYCARDTYESYDGYFDVWGAGTTVIVSS VL: DIVMSQSPSSLAVSAGETVTMSCKSSQSLFNSRSRKNYLAWYQQKPGQTPKLLIYWASIRESGVPDRFTGSGSGTDFTLTISSVQAEDLAVYYCKQSYYLYTFGSGTKLEIKR 26700

Cool, now 40G5c-hIgG1 (antibody, V domains shown) VH: EVQLVQSGAEVKKPGASVKVSCKASGYTFTNYYIHWVRQAPGQGLEWIGWIYPGDGNTKYNEKFKGRATLTADTSTSTAYLELSSLRSEDTAVYYCARDSYSNYYFDYWGQGTLVTVSS VL: DIVMTQSPDSLAVSLGERATINCKSSQSLLNSRTRKNYLAWYQQKPGQPPKLLIYWASTRESGVPDRFSGSGSGTDFTLTISSLQAEDVAVYYCTQSFILRTFGQGTKVEIKR 29500

Another binder to check: 6-44.5 human-murine chimeric antibody (antibody, human IgG1, kappa, V domains shown, Human IgG1 chimera) VH: EVQLQQSGPELVKPGASVKMSCKASGHTFTSHIMHWVKQKPGQGLEWIGYINPNNDRTEYSEKFKGKATLTSDKSSSTAYMELSSLTSEDSAVYYCAGEAYYSNSLYAMDYWGQGTSVTVSS VL: DIVMSQSPSSLAVSAGEKVTMSCKSSQSLFNSRTRKNYLAWYQQKPGQSPELLIYWASTRESGVPVRFTGSGSGTDFTLTISSVQAEDLAVYYCKQSYYLRTFGGGTKLEVKR 31700
